Recorded values, source ChEMBL document CHEMBL1828531.

- Measured on: Polyunsaturated fatty acid 5-lipoxygenase (Homo sapiens)
- Test details: Inhibition of 5-Lipoxygenase in arachidonic acid-stimulated human neutrophils after 15 mins by HPLC analysis in presence of A23187
Entries and their IC50
Your answer is read as µM, so omit the unit and give the number.

Req: I would be grateful if you could share the reported IC50 for "CC(C)(C)c1ccc(CN2CCN(C(=O)CCc3cc(-c4ccc(F)cc4)n(-c4ccc(Cl)nn4)n3)CC2)cc1" .
Resp: 1.6

Req: Entry to check: "CC(C)(C)c1ccc(CN2CCN(C(=O)CCc3cc(-c4ccc(F)cc4)n(-c4ccc(Cl)cc4)n3)CC2)cc1"
Resp: 2.6

Let us move to another entry and its IC50.
Req: Consider the compound shown here: "Cc1ccc(-c2cc(CCC(=O)N3CCN(Cc4ccc(C(C)(C)C)cc4)CC3)nn2-c2ccccc2)cc1" What is its recorded IC50?
Resp: 2.7

###

pIC50 reference
- Measured on: Polyunsaturated fatty acid 5-lipoxygenase (Homo sapiens, UniProt P09917)
- Test details: Inhibition of 5-Lipoxygenase in arachidonic acid-stimulated human neutrophils after 15 mins by HPLC analysis in presence of A23187
// pIC50 here means minus log10 of the molar concentration (mol/L)

Known results for compounds:
Req: Notebook entry, Polyunsaturated fatty acid 5-lipoxygenase (Homo sapiens, UniProt P09917) assay: pIC50 of "CCOC(=O)C1CCN(C(=O)CCc2cc(-c3ccc(C(F)(F)F)cc3)n(-c3ccc(Cl)nn3)n2)CC1" = ?
Resp: 4.82

Req: Now the compound "COc1ccc(-n2nc(CCC(=O)N3CCN(Cc4ccc(C(C)(C)C)cc4)CC3)cc2-c2ccc(C)cc2)nn1"
Resp: 5.48

Req: What about this compound? "COc1ccc(-n2nc(CCC(=O)N3CCN(Cc4ccc(C(C)(C)C)cc4)CC3)cc2-c2ccc(C(F)(F)F)cc2)nn1"
Resp: 5.10

Req: What about this compound? "Cc1ccc(-c2cc(CCC(=O)N3CCN(Cc4ccc(C(C)(C)C)cc4)CC3)nn2-c2ccc(Cl)nn2)cc1"
Resp: 5.55

Req: Another: "Cc1ccc(-c2cc(CCC(=O)Oc3ccc(C(C)C)cc3)nn2-c2ccc(Cl)nn2)cc1"
Resp: 5.10

With those in mind, consider the next compound.
Req: Write down the reported pIC50 of "Cc1ccc(-c2cc(CCC(=O)N3CCN(Cc4ccc(C(C)(C)C)cc4)CC3)nn2-c2ccc(Cl)cc2)cc1" , test system: Polyunsaturated fatty acid 5-lipoxygenase (Homo sapiens, UniProt P09917).
Resp: 5.54

###

Reported pIC50 values for the following molecules.
- Measured on: Polyunsaturated fatty acid lipoxygenase ALOX15 (Homo sapiens, UniProt P16050)
- Sequence (P16050 whole entry): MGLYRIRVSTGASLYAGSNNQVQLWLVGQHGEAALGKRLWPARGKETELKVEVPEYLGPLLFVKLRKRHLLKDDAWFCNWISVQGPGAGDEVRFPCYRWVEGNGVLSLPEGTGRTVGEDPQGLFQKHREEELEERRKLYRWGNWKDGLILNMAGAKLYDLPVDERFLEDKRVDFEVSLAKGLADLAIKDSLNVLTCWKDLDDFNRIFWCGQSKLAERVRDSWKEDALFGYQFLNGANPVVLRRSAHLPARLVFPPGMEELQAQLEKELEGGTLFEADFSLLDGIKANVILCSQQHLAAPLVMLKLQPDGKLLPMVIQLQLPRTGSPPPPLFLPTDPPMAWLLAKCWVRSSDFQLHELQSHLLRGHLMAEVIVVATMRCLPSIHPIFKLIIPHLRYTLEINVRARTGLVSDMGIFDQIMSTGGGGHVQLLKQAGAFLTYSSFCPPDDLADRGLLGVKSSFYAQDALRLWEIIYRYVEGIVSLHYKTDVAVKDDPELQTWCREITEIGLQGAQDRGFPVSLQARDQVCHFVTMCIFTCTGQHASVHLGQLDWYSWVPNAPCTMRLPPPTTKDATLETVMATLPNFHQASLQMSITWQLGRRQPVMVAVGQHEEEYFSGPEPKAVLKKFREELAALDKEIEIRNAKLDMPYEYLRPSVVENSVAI
- Test details: Inhibition of 15-Lipoxygenase-mediated 15-HETE in human neutrophil after 15 mins by HPLC analysis
pIC50: −log10 of the molar value.

Examples with their reported pIC50 follow.
Req: Item "CCOC(=O)C1CCN(C(=O)CCc2cc(-c3ccc(C(F)(F)F)cc3)n(-c3ccc(Cl)nn3)n2)CC1" has what recorded pIC50?
Resp: < 5.00

Req: Thanks! And "CCOC(=O)C1CCN(C(=O)CCc2cc(-c3ccc(C)cc3)n(-c3ccc4ccccc4n3)n2)CC1" ?
Resp: < 5.00

Req: // repeat for "Cc1ccc(-c2cc(CCC(=O)Oc3ccc(C(C)C)cc3)nn2-c2ccccc2)cc1" and report
Resp: < 5.00

New cases:
Req: Entry under review: "Cc1ccc(-c2cc(CCC(=O)N3CCN(Cc4ccc(C(C)(C)C)cc4)CC3)nn2-c2ccc3ccccc3n2)cc1" . Reported pIC50?
Resp: < 5.00

Req: Same lookup for "CC(C)(C)c1ccc(CN2CCN(C(=O)CCc3cc(-c4ccc(F)cc4)n(-c4ccc(Cl)nn4)n3)CC2)cc1" , please.
Resp: < 5.00

###

- Measured on: Polyunsaturated fatty acid 5-lipoxygenase (Homo sapiens) (UniProt P09917)
- Sequence (whole entry): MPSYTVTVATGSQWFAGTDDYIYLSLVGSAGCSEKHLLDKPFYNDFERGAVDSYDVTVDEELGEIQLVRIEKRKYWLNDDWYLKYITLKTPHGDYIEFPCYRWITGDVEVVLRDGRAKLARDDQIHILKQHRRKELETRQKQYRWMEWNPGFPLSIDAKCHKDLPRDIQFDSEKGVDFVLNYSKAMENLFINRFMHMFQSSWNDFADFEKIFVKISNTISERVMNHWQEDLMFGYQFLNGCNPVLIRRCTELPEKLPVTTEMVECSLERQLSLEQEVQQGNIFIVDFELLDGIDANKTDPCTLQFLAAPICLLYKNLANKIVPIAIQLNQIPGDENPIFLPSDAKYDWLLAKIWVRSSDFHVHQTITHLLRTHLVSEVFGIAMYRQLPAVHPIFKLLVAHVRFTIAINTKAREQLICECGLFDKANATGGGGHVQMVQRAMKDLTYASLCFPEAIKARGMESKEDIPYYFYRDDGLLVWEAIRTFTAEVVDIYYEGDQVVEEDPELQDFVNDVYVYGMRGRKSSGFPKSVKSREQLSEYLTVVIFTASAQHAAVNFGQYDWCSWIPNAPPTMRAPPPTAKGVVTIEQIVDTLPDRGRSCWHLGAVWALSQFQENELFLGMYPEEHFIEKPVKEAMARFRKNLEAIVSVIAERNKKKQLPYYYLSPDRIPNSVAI
- Test details: Inhibition of recombinant human 5-Lipoxygenase expressed in Escherichia coli lysate assessed as residual activity at 10 uM after 10 mins by HPLC analysis
Criterion: Activity strictly less than 90%. Met: y. Not met: n.

A selection of reference data follows.
Req: Threshold test, Activity < 90%: "CC(C)(C)c1ccc(OC(=O)CCc2cc(-c3ccc(F)cc3)n(-c3ccc(Cl)nn3)n2)cc1"
Resp: n

Req: Entry "Cc1ccc(-c2cc(CCC(=O)Oc3ccc(C(C)C)cc3)nn2-c2ccc(Cl)nn2)cc1" please
Resp: n

Req: What would you report for "Cc1ccc(-c2cc(CCC(=O)N3CCN(Cc4ccc(C(C)(C)C)cc4)CC3)nn2-c2ccc(Cl)cc2)cc1" ?
Resp: n

Req: Item: "COc1ccc(-n2nc(CCC(=O)N3CCN(Cc4ccc(C(C)(C)C)cc4)CC3)cc2-c2ccc(C)cc2)nn1"
Resp: y

Req: Next compound up: "COc1ccc(-n2nc(CCC(=O)N3CCN(Cc4ccc(C(C)(C)C)cc4)CC3)cc2-c2ccc(C(F)(F)F)cc2)nn1"
Resp: y

Others:
Req: Is Activity strictly under 90% for the entry "O=C(CCc1cc(-c2ccc(F)cc2)n(-c2ccc(Cl)nn2)n1)Oc1ccc(-c2ccsc2)cc1" ?
Resp: y

Req: Would you mind doing "CCOC(=O)C1CCN(C(=O)CCc2cc(-c3ccc(C)cc3)n(-c3ccccc3)n2)CC1" as well?
Resp: n

Req: Query "COc1ccc(-n2nc(CCC(=O)N3CCN(Cc4ccc(C(C)(C)C)cc4)CC3)cc2-c2ccc(F)cc2)nn1" next
Resp: y

Req: What would you report for "CC(C)(C)c1ccc(CN2CCN(C(=O)CCc3cc(-c4ccc(F)cc4)n(-c4ccc5ccccc5n4)n3)CC2)cc1" ?
Resp: n

Req: Further, for "Cc1ccc(-c2cc(CCC(=O)Oc3ccc(C(C)C)cc3)nn2-c2ccccc2)cc1" ?
Resp: n

###

- Measured on: Polyunsaturated fatty acid lipoxygenase ALOX15 (Homo sapiens)
- Test details: Inhibition of 15-Lipoxygenase-mediated 15-HETE in human neutrophil assessed as residual activity at 30 uM after 15 mins by HPLC analysis
Observation type: Activity (%)
All answers are understood in %, so give the number only.

Req: May I ask what Activity has been recorded for "Cc1ccc(-c2cc(CCC(=O)N3CCN(Cc4ccc(C(C)(C)C)cc4)CC3)nn2-c2ccccc2)cc1" ?
Resp: 261

Next:
Req: I'd like to know its Activity. The compound in question is "Cc1ccc(-c2cc(CCC(=O)Oc3ccc(C(C)C)cc3)nn2-c2ccccc2)cc1"
Resp: 124

Req: Cool, now "CCOC(=O)C1CCN(C(=O)CCc2cc(-c3ccc(C)cc3)n(-c3ccc4ccccc4n3)n2)CC1"
Resp: 149

Req: Please answer likewise for "CCOC(=O)C1CCN(C(=O)CCc2cc(-c3ccc(C)cc3)n(-c3ccccc3)n2)CC1"
Resp: 196

Req: What would you report for "CCOC(=O)C1CCN(C(=O)CCc2cc(-c3ccc(C(F)(F)F)cc3)n(-c3ccc(Cl)nn3)n2)CC1" ?
Resp: 71

Req: Another compound to look at: "CC(C)(C)c1ccc(CN2CCN(C(=O)CCc3cc(-c4ccc(F)cc4)n(-c4ccc(Cl)nn4)n3)CC2)cc1"
Resp: 175

Req: Same lookup for "Cc1ccc(-c2cc(CCC(=O)N3CCN(Cc4ccc(C(C)(C)C)cc4)CC3)nn2-c2ccc3ccccc3n2)cc1" , please.
Resp: 145

Req: Also "Cc1ccc(-c2cc(CCC(=O)Oc3ccc(C(C)C)cc3)nn2-c2ccc3ccccc3n2)cc1" ?
Resp: 92
